Assay: molar heat capacity at constant pressure
Settings: 318.15 K; 101.33 kPa; Liquid; Small sample (50 mg) DSC
Reported molar heat capacity at constant pressure is given for each of the following compounds.
// note: answer is a bare numeric in J/K/mol

Recorded molar heat capacity at constant pressure, per entry:
Compound	molar heat capacity at constant pressure [J/K/mol]
CCCCn1cc[n+](C)c1.COS(=O)(=O)[O-] [1-butyl-3-methylimidazolium methyl sulfate]	425.6
CCOS(=O)(=O)[O-].CCn1cc[n+](C)c1 [1-ethyl-3-methylimidazolium ethyl sulfate]	404.9
CCCCn1cc[n+](C)c1.O=S(=O)([O-])C(F)(F)F [1-butyl-3-methylimidazolium trifluoromethanesulfonate]	435.5
O [water]	75.3

Could you now look at the following compound, please?
Kindly note the recorded molar heat capacity at constant pressure for CCn1cc[n+](C)c1.O=S(=O)([O-])C(F)(F)F [1-ethyl-3-methylimidazolium trifluoromethanesulfonate] , which is 371.8

* * *

Assay: molar heat capacity at constant pressure
Settings: 313.15 K; 101.33 kPa; Liquid; Small sample (50 mg) DSC
Value type: molar heat capacity at constant pressure (J/K/mol)
Please give a number only; it is taken to be in J/K/mol.

Use the examples below as a reference point.
Molecule	molar heat capacity at constant pressure / J/K/mol
CCCCn1cc[n+](C)c1.O=S(=O)([O-])C(F)(F)F [1-butyl-3-methylimidazolium trifluoromethanesulfonate]	432.4
CCOS(=O)(=O)[O-].CCn1cc[n+](C)c1 [1-ethyl-3-methylimidazolium ethyl sulfate]	402
CCCCn1cc[n+](C)c1.COS(=O)(=O)[O-] [1-butyl-3-methylimidazolium methyl sulfate]	423.3
CCn1cc[n+](C)c1.O=S(=O)([O-])C(F)(F)F [1-ethyl-3-methylimidazolium trifluoromethanesulfonate]	369.6

Would you kindly look at the next entry?
Entry O , molar heat capacity at constant pressure reported as 75.2

* * *

Conditions: 303.15 K; 101.33 kPa; Liquid; Vibrating tube method
Value type: mass density (kg/m3)
// return numeric value only (unit: kg/m3, not printed)

Worked examples follow.
Molecule	Quantity unit	mass density
CCn1cc[n+](C)c1.O=S(=O)([O-])C(F)(F)F [1-ethyl-3-methylimidazolium trifluoromethanesulfonate]	kg/m3	1381.1
CCOS(=O)(=O)[O-].CCn1cc[n+](C)c1 [1-ethyl-3-methylimidazolium ethyl sulfate]	kg/m3	1233.8
CCCCn1cc[n+](C)c1.O=S(=O)([O-])C(F)(F)F [1-butyl-3-methylimidazolium trifluoromethanesulfonate]	kg/m3	1293.7

Sure, the documented mass density for CCCCn1cc[n+](C)c1.COS(=O)(=O)[O-] [1-butyl-3-methylimidazolium methyl sulfate] is 1204.1

* * *

Conditions: 313.15 K; 101.33 kPa; Liquid; Vibrating tube method
Value type: mass density (kg/m3)
Numeric only. Scale: kg/m3

Solved cases (2 shown):
Compound	Value type	Observed
CCCCn1cc[n+](C)c1.COS(=O)(=O)[O-] [1-butyl-3-methylimidazolium methyl sulfate]	mass density	1197.5
CCCCn1cc[n+](C)c1.O=S(=O)([O-])C(F)(F)F [1-butyl-3-methylimidazolium trifluoromethanesulfonate]	mass density	1285.8

Quick note, mass density for CCn1cc[n+](C)c1.O=S(=O)([O-])C(F)(F)F [1-ethyl-3-methylimidazolium trifluoromethanesulfonate] landed at 1372.7

Value of measured mass density for the entry CCOS(=O)(=O)[O-].CCn1cc[n+](C)c1 [1-ethyl-3-methylimidazolium ethyl sulfate] : 1227

* * *

Measured mass density, listed per entry.
Details: 318.15 K; 101.33 kPa; Liquid; Vibrating tube method
Give the value in kg/m3 but do not write kg/m3 after it.

Some compounds with recorded mass density:
Compound	Quantity unit	mass density
CCOS(=O)(=O)[O-].CCn1cc[n+](C)c1 [1-ethyl-3-methylimidazolium ethyl sulfate]	kg/m3	1223.7
CCn1cc[n+](C)c1.O=S(=O)([O-])C(F)(F)F [1-ethyl-3-methylimidazolium trifluoromethanesulfonate]	kg/m3	1368.6
CCCCn1cc[n+](C)c1.O=S(=O)([O-])C(F)(F)F [1-butyl-3-methylimidazolium trifluoromethanesulfonate]	kg/m3	1281.9

Entry CCCCn1cc[n+](C)c1.COS(=O)(=O)[O-] [1-butyl-3-methylimidazolium methyl sulfate] ; mass density = 1194.2

* * *

Assay: molar heat capacity at constant pressure
Settings: 293.15 K; 101.33 kPa; Liquid; Small sample (50 mg) DSC
In this section, each of the compounds is paired with its reported molar heat capacity at constant pressure.
Please give a number only; it is taken to be in J/K/mol.

Solved entries (count: 4):
Compound	molar heat capacity at constant pressure [J/K/mol]
CCn1cc[n+](C)c1.O=S(=O)([O-])C(F)(F)F [1-ethyl-3-methylimidazolium trifluoromethanesulfonate]	361.1
O	75.4
CCCCn1cc[n+](C)c1.O=S(=O)([O-])C(F)(F)F [1-butyl-3-methylimidazolium trifluoromethanesulfonate]	421.6
CCOS(=O)(=O)[O-].CCn1cc[n+](C)c1 [1-ethyl-3-methylimidazolium ethyl sulfate]	392.2

Consider now this further compound.
Input CCCCn1cc[n+](C)c1.COS(=O)(=O)[O-] [1-butyl-3-methylimidazolium methyl sulfate] . Output molar heat capacity at constant pressure: 413.7

* * *

Details: 308.15 K; 101.33 kPa; Liquid; Vibrating tube method
Value type: mass density (kg/m3)
Quick reminder: number only, in kg/m3, skip the unit.

Molecule	mass density / kg/m3
CCCCn1cc[n+](C)c1.COS(=O)(=O)[O-] [1-butyl-3-methylimidazolium methyl sulfate]	1200.8
CCOS(=O)(=O)[O-].CCn1cc[n+](C)c1 [1-ethyl-3-methylimidazolium ethyl sulfate]	1230.4
O	994.1
CCn1cc[n+](C)c1.O=S(=O)([O-])C(F)(F)F [1-ethyl-3-methylimidazolium trifluoromethanesulfonate]	1376.9

Entry CCCCn1cc[n+](C)c1.O=S(=O)([O-])C(F)(F)F [1-butyl-3-methylimidazolium trifluoromethanesulfonate] ; mass density = 1289.7

* * *

Experiment: molar heat capacity at constant pressure
Conditions: 303.15 K; 101.33 kPa; Liquid; Small sample (50 mg) DSC
Hi! Just check whether molar heat capacity at constant pressure is below 400 J/K/mol. Below gives Condition met, equal or above gives Condition not met.

Compound	Answer label
O	Condition met
CCCCn1cc[n+](C)c1.O=S(=O)([O-])C(F)(F)F [1-butyl-3-methylimidazolium trifluoromethanesulfonate]	Condition not met
CCn1cc[n+](C)c1.O=S(=O)([O-])C(F)(F)F [1-ethyl-3-methylimidazolium trifluoromethanesulfonate]	Condition met

Problem: For the compound CCCCn1cc[n+](C)c1.COS(=O)(=O)[O-] [1-butyl-3-methylimidazolium methyl sulfate] , is molar heat capacity at constant pressure under 400 J/K/mol? Condition not met

* * *

Conditions: 298.15 K; 101.33 kPa; Liquid; Vibrating tube method
Value type: mass density (kg/m3)
Please respond with the number in kg/m3 and leave the unit unwritten.

Molecule	Quantity unit	Observed
CCCCn1cc[n+](C)c1.O=S(=O)([O-])C(F)(F)F [1-butyl-3-methylimidazolium trifluoromethanesulfonate]	kg/m3	1297.6
CCn1cc[n+](C)c1.O=S(=O)([O-])C(F)(F)F [1-ethyl-3-methylimidazolium trifluoromethanesulfonate]	kg/m3	1385.3
CCCCn1cc[n+](C)c1.COS(=O)(=O)[O-] [1-butyl-3-methylimidazolium methyl sulfate]	kg/m3	1207.4

// sample CCOS(=O)(=O)[O-].CCn1cc[n+](C)c1 [1-ethyl-3-methylimidazolium ethyl sulfate] , its mass density was 1237.2

* * *

Entries and their mass density values follow.
Conditions: 293.15 K; 101.33 kPa; Liquid; Vibrating tube method
Numeric only. Scale: kg/m3

Compound	Observed
CCOS(=O)(=O)[O-].CCn1cc[n+](C)c1 [1-ethyl-3-methylimidazolium ethyl sulfate]	1240.6
CCn1cc[n+](C)c1.O=S(=O)([O-])C(F)(F)F [1-ethyl-3-methylimidazolium trifluoromethanesulfonate]	1389.5
CCCCn1cc[n+](C)c1.O=S(=O)([O-])C(F)(F)F [1-butyl-3-methylimidazolium trifluoromethanesulfonate]	1301.6

Here is another compound to look at.
mass density reported for this compound CCCCn1cc[n+](C)c1.COS(=O)(=O)[O-] [1-butyl-3-methylimidazolium methyl sulfate] : 1210.7

* * *

Assay: molar heat capacity at constant pressure
Conditions: 308.15 K; 101.33 kPa; Liquid; Small sample (50 mg) DSC
Outcome: 1 (yes) for molar heat capacity at constant pressure of at least 400 J/K/mol; 0 (no) for anything lower.

Compound	Answer label
CCn1cc[n+](C)c1.O=S(=O)([O-])C(F)(F)F [1-ethyl-3-methylimidazolium trifluoromethanesulfonate]	0 (no)
CCCCn1cc[n+](C)c1.O=S(=O)([O-])C(F)(F)F [1-butyl-3-methylimidazolium trifluoromethanesulfonate]	1 (yes)

Decide: is the reported value of molar heat capacity at constant pressure for CCCCn1cc[n+](C)c1.COS(=O)(=O)[O-] [1-butyl-3-methylimidazolium methyl sulfate] equal to or greater than 400 J/K/mol? 1 (yes)

Is the recorded value of molar heat capacity at constant pressure equal to or greater than 400 J/K/mol for this compound? O 0 (no)
